This listing pairs molecules with measured IC50.
- TARGET_UNDER_TEST: Ribosomal protein S6 kinase alpha-3 (Homo sapiens, UniProt P51812)
- Sequence (P51812 whole entry): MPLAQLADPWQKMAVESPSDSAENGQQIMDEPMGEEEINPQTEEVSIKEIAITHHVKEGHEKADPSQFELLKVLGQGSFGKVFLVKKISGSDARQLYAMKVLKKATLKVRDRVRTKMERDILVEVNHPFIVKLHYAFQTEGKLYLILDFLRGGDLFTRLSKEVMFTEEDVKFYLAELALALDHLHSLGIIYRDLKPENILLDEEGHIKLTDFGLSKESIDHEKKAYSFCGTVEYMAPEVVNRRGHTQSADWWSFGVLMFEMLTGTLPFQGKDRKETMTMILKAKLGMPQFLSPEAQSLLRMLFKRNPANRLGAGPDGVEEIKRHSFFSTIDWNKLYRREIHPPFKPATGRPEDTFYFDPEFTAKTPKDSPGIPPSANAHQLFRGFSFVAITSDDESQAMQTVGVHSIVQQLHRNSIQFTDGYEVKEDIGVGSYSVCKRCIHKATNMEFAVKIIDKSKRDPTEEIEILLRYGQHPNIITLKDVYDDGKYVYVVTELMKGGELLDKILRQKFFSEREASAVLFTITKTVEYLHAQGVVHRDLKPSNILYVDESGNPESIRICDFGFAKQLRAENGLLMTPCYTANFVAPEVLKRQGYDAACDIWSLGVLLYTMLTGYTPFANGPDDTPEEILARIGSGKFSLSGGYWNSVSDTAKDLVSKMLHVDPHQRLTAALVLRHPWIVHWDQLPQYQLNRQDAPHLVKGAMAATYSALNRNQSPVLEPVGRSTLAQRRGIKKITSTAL
- ASSAY_TEXT: Inhibition of RSK2 (unknown origin)

{"columns": ["COMPOUND_STRUCTURE", "TARGET_UNDER_TEST", "IC50 (µM)"],
 "data": [
  ["CC(C)=CCC1=C(O)C(=O)c2ccccc2C1=O", "Ribosomal protein S6 kinase alpha-3 (Homo sapiens, UniProt P51812)", 2],
  ["O=C1c2ccccc2-c2c(NCCc3ccccc3)c(=O)[nH]c3cccc1c23", "Ribosomal protein S6 kinase alpha-3 (Homo sapiens, UniProt P51812)", 2.4]
]}
